Would you kindly list interfacial tension for each of these compounds?
test_conditions: 348.15 K; 101.3 kPa; Liquid mixture 1; spinning drop method
Report the figure in mN/m without appending any unit label.

Query: Please give the documented interfacial tension of CCCCCCC(=O)OC [methyl heptanoate] + O
Result: 16.9

Query: Please give the documented interfacial tension of CCCC(=O)OC [methyl butanoate] + O
Result: 9.4

Query: Please give the documented interfacial tension of CCCCCC(=O)OC [methyl hexanoate] + O
Result: 15.1

Query: Please give the documented interfacial tension of CCCCC(=O)OC [methyl pentanoate] + O
Result: 13.2

----------
test_conditions: 338.15 K; 101.3 kPa; Liquid mixture 1; spinning drop method
Is interfacial tension at least 10 mN/m? Then 1.0. If not, 0.0.

Query: Is interfacial tension for CCC(=O)OC [methyl propanoate] + O at or above 10 mN/m?
Result: 0.0

Query: Is interfacial tension for CCCCCCC(=O)OC [methyl heptanoate] + O at or above 10 mN/m?
Result: 1.0

Query: Is interfacial tension for CCCCCC(=O)OC [methyl hexanoate] + O at or above 10 mN/m?
Result: 1.0

Query: Is interfacial tension for CCCCC(=O)OC [methyl pentanoate] + O at or above 10 mN/m?
Result: 1.0

Recorded values, source the NIST ThermoML archive (doi:10.1016/j.jct.2018.02.010).
